target: EGF-R L861Q (Homo sapiens, UniProt P00533, L861Q); assay: Radiometric protein kinase test (33PanQinase activity determination), IC50; conditions: ATP 0.3 μM
pIC50: −log10 of the molar value.
parameterMeasured: pIC50

>>> resultvalue("C#Cc1cccc(Nc2c(C#N)cnc3cc(OCC)c(NC(=O)/C=C/CN(C)C)cc23)c1")
8.72

###

target: EGF-R G719S (Homo sapiens, UniProt P00533, G719S); experiment: Radiometric protein kinase test (33PanQinase activity determination), IC50; conditions: ATP 0.3 μM
Sequence (P00533 25-1210 G719S): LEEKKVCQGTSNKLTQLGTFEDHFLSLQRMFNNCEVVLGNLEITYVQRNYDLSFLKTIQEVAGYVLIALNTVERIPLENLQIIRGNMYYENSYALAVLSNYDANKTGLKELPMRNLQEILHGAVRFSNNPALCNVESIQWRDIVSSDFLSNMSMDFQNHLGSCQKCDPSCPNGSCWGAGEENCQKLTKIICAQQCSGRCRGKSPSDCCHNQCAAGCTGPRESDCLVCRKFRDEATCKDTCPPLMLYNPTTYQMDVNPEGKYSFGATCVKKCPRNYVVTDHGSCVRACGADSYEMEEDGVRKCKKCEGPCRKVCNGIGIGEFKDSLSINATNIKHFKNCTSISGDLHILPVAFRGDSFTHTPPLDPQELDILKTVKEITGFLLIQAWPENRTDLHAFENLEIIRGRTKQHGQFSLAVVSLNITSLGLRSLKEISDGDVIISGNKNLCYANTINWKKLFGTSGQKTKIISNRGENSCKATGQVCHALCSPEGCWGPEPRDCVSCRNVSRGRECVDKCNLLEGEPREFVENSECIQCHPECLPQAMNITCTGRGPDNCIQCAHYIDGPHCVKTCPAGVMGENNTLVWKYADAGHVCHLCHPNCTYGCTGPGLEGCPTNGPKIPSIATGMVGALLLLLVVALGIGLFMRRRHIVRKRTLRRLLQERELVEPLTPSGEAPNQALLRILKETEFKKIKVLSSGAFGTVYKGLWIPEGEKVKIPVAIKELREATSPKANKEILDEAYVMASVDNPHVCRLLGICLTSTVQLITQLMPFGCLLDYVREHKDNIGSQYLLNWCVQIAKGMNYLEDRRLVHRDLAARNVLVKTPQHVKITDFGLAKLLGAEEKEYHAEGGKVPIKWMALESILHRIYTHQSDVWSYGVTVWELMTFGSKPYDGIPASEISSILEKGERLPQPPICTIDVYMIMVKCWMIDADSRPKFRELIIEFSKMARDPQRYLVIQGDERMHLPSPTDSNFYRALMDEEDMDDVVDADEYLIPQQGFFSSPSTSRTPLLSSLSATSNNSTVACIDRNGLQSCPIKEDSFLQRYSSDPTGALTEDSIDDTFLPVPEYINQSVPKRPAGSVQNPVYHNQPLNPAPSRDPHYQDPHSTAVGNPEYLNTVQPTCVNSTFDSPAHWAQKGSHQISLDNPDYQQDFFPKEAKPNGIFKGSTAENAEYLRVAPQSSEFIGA
parameterMeasured: IC50 (nM)

>>> resultvalue("C#Cc1cccc(Nc2c(C#N)cnc3cc(OCC)c(NC(=O)/C=C/CN(C)C)cc23)c1")
1.5

###

target: EGF-R wt (Homo sapiens, UniProt P00533)
pIC50: −log10 of the molar value.
parameterMeasured: pIC50

>>> resultvalue("C#Cc1cccc(Nc2c(C#N)cnc3cc(OCC)c(NC(=O)/C=C/CN(C)C)cc23)c1")
8.89

###

molecular target: EGF-R T790M/L858R (Homo sapiens, UniProt P00533, L858R/T790M); assay: Radiometric protein kinase test (33PanQinase activity determination), IC50; conditions: ATP 0.3 μM
Sequence (P00533 25-1210 T790M/L858R): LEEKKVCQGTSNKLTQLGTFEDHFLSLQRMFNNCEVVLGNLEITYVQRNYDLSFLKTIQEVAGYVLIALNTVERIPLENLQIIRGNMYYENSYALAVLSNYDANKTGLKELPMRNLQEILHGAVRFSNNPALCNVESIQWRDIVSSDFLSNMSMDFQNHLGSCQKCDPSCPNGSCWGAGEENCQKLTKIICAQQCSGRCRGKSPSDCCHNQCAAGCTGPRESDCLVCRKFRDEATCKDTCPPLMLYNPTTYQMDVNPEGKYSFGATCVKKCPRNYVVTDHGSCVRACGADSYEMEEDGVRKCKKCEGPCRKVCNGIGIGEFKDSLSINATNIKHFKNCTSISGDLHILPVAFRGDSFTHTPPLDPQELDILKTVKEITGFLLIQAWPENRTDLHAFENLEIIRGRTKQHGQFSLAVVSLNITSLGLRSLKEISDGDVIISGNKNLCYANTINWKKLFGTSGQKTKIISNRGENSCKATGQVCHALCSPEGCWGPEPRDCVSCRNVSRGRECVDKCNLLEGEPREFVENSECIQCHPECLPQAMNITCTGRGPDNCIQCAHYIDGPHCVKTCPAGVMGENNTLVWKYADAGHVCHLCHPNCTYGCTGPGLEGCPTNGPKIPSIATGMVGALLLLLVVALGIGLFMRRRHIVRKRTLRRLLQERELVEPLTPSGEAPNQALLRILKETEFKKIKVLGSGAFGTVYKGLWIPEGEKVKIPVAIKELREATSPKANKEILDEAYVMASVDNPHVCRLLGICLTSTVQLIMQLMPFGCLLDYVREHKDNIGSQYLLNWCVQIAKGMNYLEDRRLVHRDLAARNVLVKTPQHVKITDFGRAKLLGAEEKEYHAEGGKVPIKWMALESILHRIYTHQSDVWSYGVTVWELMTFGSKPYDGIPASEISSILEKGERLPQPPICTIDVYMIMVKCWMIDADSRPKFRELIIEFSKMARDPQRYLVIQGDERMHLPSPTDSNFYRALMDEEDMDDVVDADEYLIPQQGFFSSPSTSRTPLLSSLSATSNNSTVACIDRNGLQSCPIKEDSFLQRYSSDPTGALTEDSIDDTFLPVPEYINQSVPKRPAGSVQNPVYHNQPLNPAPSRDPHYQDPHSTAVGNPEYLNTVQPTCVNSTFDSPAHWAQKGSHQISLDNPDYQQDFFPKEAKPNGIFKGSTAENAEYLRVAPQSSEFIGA
parameterMeasured: IC50 (nM)

>>> resultvalue("C#Cc1cccc(Nc2c(C#N)cnc3cc(OCC)c(NC(=O)/C=C/CN(C)C)cc23)c1")
88

###

target: EGF-R 790M (Homo sapiens, UniProt P00533, T790M); experiment: Radiometric protein kinase test (33PanQinase activity determination), IC50; settings: ATP 0.3 μM
Sequence (P00533 25-1210 T790M): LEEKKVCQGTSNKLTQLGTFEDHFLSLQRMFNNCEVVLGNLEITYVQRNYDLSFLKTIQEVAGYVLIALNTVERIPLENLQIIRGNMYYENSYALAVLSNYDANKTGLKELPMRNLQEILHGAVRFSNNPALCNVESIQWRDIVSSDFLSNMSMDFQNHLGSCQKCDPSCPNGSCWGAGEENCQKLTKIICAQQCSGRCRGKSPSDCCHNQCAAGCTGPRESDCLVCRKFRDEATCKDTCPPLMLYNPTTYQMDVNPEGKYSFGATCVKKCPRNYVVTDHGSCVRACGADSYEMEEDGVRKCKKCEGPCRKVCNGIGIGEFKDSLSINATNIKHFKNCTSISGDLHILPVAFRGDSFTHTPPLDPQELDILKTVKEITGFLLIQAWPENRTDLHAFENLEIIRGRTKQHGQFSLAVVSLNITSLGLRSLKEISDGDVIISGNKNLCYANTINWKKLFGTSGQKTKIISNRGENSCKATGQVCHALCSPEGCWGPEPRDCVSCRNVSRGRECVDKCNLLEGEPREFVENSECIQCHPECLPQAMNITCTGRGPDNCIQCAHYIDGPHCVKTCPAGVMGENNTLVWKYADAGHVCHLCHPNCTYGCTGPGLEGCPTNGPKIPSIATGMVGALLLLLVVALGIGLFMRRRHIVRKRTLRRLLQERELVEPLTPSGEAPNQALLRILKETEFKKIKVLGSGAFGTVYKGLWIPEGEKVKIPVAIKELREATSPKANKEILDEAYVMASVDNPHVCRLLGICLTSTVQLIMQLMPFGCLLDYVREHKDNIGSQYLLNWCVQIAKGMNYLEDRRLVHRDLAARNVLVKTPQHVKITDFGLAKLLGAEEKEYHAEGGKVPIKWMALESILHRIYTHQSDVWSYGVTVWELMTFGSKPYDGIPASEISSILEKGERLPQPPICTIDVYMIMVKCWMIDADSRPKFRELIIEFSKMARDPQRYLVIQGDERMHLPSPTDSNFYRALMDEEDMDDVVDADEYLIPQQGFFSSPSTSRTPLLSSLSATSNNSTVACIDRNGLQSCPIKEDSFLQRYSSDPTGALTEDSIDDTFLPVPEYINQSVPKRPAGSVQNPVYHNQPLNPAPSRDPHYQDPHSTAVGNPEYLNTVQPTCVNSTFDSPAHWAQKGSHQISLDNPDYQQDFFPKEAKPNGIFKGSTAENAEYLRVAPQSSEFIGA
parameterMeasured: IC50 (nM)

>>> resultvalue("C#Cc1cccc(Nc2c(C#N)cnc3cc(OCC)c(NC(=O)/C=C/CN(C)C)cc23)c1")
120

###

target: EGF-R G719C (Homo sapiens, UniProt P00533, G719C); test: Radiometric protein kinase test (33PanQinase activity determination), IC50; details: ATP 1.0 μM
Sequence (P00533 25-1210 G719C): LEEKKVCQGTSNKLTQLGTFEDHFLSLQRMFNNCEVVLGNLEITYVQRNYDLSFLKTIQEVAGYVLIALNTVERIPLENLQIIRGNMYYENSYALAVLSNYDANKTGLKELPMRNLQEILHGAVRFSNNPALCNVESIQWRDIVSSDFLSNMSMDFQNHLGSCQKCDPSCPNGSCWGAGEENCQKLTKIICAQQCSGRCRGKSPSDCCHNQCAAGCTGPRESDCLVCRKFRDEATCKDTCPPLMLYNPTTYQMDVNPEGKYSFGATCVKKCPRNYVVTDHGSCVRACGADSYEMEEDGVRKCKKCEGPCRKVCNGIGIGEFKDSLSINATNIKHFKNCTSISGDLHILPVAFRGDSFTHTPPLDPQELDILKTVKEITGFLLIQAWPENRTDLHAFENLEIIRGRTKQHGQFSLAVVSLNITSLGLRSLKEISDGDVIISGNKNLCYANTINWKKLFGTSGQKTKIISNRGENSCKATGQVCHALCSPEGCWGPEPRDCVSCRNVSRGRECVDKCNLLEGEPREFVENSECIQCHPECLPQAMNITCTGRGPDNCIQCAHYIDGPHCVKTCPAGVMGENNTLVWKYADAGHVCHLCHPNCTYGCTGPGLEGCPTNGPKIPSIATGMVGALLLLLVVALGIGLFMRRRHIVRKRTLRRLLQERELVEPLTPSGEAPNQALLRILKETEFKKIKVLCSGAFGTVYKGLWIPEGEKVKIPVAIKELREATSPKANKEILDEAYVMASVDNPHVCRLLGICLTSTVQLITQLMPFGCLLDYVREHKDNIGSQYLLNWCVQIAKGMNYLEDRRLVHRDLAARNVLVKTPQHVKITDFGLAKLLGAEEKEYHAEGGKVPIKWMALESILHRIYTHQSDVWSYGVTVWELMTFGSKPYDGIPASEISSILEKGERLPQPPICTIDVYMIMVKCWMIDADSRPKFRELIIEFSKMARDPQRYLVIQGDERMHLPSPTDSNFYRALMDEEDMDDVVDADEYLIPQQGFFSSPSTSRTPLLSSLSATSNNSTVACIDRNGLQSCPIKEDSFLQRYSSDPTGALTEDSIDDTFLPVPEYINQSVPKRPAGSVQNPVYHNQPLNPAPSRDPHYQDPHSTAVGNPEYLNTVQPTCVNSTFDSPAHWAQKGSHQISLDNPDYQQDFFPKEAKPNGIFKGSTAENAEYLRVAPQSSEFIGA
parameterMeasured: IC50

>>> resultvalue("C#Cc1cccc(Nc2c(C#N)cnc3cc(OCC)c(NC(=O)/C=C/CN(C)C)cc23)c1")
"1.4 nM"
